Tested on: OVCAR-8 ovarian
run description: NCI-60 one-dose screen, 48 h (100 = growth as untreated, 0 = no growth, -100 = all killed)
condition set: 10 µM unless noted
The panel holds about 83,000 compounds, 20% with a hit somewhere; the sample as a whole holds those more often.
Give measured growth for each item. Keep answers brief.
The answer is to be given in %; state only the numeric part.

Please give measured growth of the following entry: "CCCCCCCCCCCCOB(OCCCCCCCCCCCC)OCCCCCCCCCCCC"
101

Please give measured growth of the following entry: "COc1ccc(Cl)cc1NC(N)=S"
108

Please give measured growth of the following entry: "COc1cccc2cc(-c3cc4ccccc4[nH]3)/c(=N/C(=S)Nc3ccccc3)oc12"
66.2

Please give measured growth of the following entry: "CC(=O)n1cc([C@H]2CC[C@H](c3cn(C(C)=O)c4ccccc34)c3c2[nH]c2ccccc32)c2ccccc21"
89.5

Please give measured growth of the following entry: "Cc1cccc2cc(/C=C/C(=O)/C=C/c3ccc(Cl)cc3)c(=O)[nH]c12"
21.8

Please give measured growth of the following entry: "Nc1c(C(=O)Nc2ccccc2)sc2nc3c(cc12)CN(Cc1ccccc1)CC3"
74.8

Please give measured growth of the following entry: "O=C1Nc2cc(Cl)ccc2/C1=C/c1ccc(N2CCOCC2)s1"
98.2

Please give measured growth of the following entry: "O=C(N/N=C/c1c(Cl)cccc1Cl)c1ccccc1Nc1ccnc(C(F)(F)F)c1"
64.8

Please give measured growth of the following entry: "Clc1ccc(/C=C/c2nc(N3CCOCC3)c3nc(Cl)c(Cl)cc3n2)cc1"
108

Please give measured growth of the following entry: CC1Cc2c(N(C)C)ncnc2N(C)c2ccc(Cl)cc21 (stereo not given)
45.9

* * *

Tested on: NCI-H322M lung
run description: NCI-60 one-dose screen, 48 h (100 = growth as untreated, 0 = no growth, -100 = all killed)
condition set: 10 µM unless noted
About 83,000 compounds went through this panel and 20% of them were active in at least one assay; those are over-represented in the sample as a whole.
measured metric: growth (%)
The answer is to be given in %; state only the numeric part.

Please give measured growth of the following entry: COc1ccc(C2CC(c3cccs3)=NN2c2ccc(S(=O)(=O)NC(=O)Nc3ccc(C)cc3)cc2)cc1 (configuration not stated)
104

Please give measured growth of the following entry: "Clc1nc(Cl)c2ncn(C/C=C/Cn3cnc4c(Cl)nc(Cl)nc43)c2n1"
94.6

Please give measured growth of the following entry: OC1CC2c3ccccc3C1c1ccccc12 (configuration not stated)
114

Please give measured growth of the following entry: C#CCC1(c2ccc(F)c(F)c2)NS(=O)(=O)c2ccccc21 (configuration not stated)
90.5

Please give measured growth of the following entry: "COc1cccc(-c2nc3sccn3c2-c2ccnc(NCCNS(=O)(=O)c3ccccc3)n2)c1"
81.7

Please give measured growth of the following entry: "O=C(/C=C/CN1CCCCC1)Nc1cc2c(Nc3ccc(F)c(Cl)c3F)ncnc2cc1OCCOC(F)F"
5.03

Please give measured growth of the following entry: O=C(c1c[nH]c2ccccc12)C(Sc1nc2ccccc2c(=O)[nH]1)c1ccccc1 (configuration not stated)
121

Please give measured growth of the following entry: "O=C(Cc1n[nH]c(=O)c2ccccc12)OCc1c(Cl)cccc1Cl"
107

Please give measured growth of the following entry: "Nc1c(C(=O)c2ccc(F)cc2)sc2nc3c(cc12)CCCC3"
81.3

Please give measured growth of the following entry: CC1Cc2c(N(C)C)ncnc2N(C)c2ccc(Cl)cc21 (configuration not stated)
73.2

Please give measured growth of the following entry: CCOC(=O)c1ccccc1NC(c1ccccc1)c1ccc2cccnc2c1O (configuration not stated)
42.5

Please give measured growth of the following entry: "O=S(=O)(c1ccccc1)n1ccc(-c2ccc3c(c2)CCO3)n1"
91.4

Please give measured growth of the following entry: "O=S(=O)(O)CCl"
105

Please give measured growth of the following entry: "COc1ccc(C(=O)/C=C/c2cccc([N+](=O)[O-])c2)c(OC)c1"
66

Please give measured growth of the following entry: "COC(=O)c1ccc(C)cc1"
113

Please give measured growth of the following entry: "COc1cc(C(=O)OCCCCCCCCCCC[P+](c2ccccc2)(c2ccccc2)c2ccccc2)ccc1O"
1.65

Please give measured growth of the following entry: "Nc1nc(Cl)c2c(ncn2Cc2ccc(CCl)cc2)n1"
94.9

Please give measured growth of the following entry: "COc1ccc(/C(=N/O)c2cc(F)c(F)c(OC)c2F)cc1O"
46

Please give measured growth of the following entry: "O=S(=O)(NCCCNc1cc(-c2cn(-c3ccccc3)nc2-c2cccc(O)c2)ccn1)c1ccc(Br)cc1"
20.7

Please give measured growth of the following entry: "Nc1c(C(=O)Nc2cccc(C(F)(F)F)c2)sc2nc3c(cc12)CCCCC3"
-5.26

Please give measured growth of the following entry: "C=C1C(=O)O[C@H]2[C@H]1CC/C(COC(=O)NCCc1ccc(OC)cc1)=C\CC[C@@]1(C)O[C@@H]21"
88.4

Please give measured growth of the following entry: O=C(O)C(Cc1ccccc1)N1C(=O)/C(=C/C(Cl)=C/c2ccc([N+](=O)[O-])cc2)SC1=S (configuration not stated)
70.9

Please give measured growth of the following entry: "OCc1c(-c2ccccc2)nc2sccn12"
105

Please give measured growth of the following entry: "COc1cc(/C=C2\C=C(c3ccc(F)cc3)N(Cc3ccccc3)C2=O)cc(OC)c1OC"
61.4

Please give measured growth of the following entry: "Nc1c(C(=O)Nc2ccccc2)sc2nc3c(cc12)CCC3"
101

Please give measured growth of the following entry: "Cc1cc2c(C(C)C)c(O)c(O)c(C=NCCCCCCC(=O)O)c2c(O)c1-c1c(C)cc2c(C(C)C)c(O)c(O)c(C=NCCCCCCC(=O)O)c2c1O"
38.9

Please give measured growth of the following entry: COC(=O)[C@H]1[C@H](OC)[C@@H](OC(=O)/C=C/c2ccncc2)CC2CN3CCc4c([nH]c5cc(OC)ccc45)[C@@H]3C[C@@H]21 (some centres not stated)
78.4

Please give measured growth of the following entry: COc1ccc2c(c1)C=CC(C#N)N2C(=O)c1ccccc1 (configuration not stated)
53.9

Please give measured growth of the following entry: "COc1ccc(C(=O)N2CCN(C(=O)c3cc(OC)c(OC)c(OC)c3)CC2)cc1OCCCCOc1cc2c(cc1OC)C(=O)N1CCC[C@H]1C=N2"
141

Please give measured growth of the following entry: "COc1ccc(/C=C2\Oc3cc(OCCN4CCCC4)ccc3C2=O)c(OC)c1"
101

Please give measured growth of the following entry: "COc1cccc(/C=C/c2c(C(=O)O)cccc2[N+](=O)[O-])c1OC"
107

Please give measured growth of the following entry: "CCN(CC)CCCNc1nc(C)cc(Nc2ccc3nc(C)cc(N)c3c2)n1"
95.5

Please give measured growth of the following entry: "COc1cc(OC)cc(-c2n[nH]nc2-c2ccc3c(c2)OCO3)c1"
55.5

Please give measured growth of the following entry: CC1=NN2C(=NC3=C(CCC/C3=C\c3ccc(Cl)cc3)C2c2ccc(Cl)cc2)S1 (configuration not stated)
104

Please give measured growth of the following entry: "CCSc1nnc(Nc2ccc(C(C)C)cc2)s1"
97.6

Please give measured growth of the following entry: "COc1ccc(NC(=O)CSc2nc3ccccc3c(=O)n2-c2ccccc2C(F)(F)F)c(OC)c1OC"
116

Please give measured growth of the following entry: "NC(=O)c1c(NC(=O)c2ccc3c(c2)OCO3)sc2c1CCC(=O)C2"
14.8

* * *

Tested on: SF-268 CNS
run description: NCI-60 one-dose screen, 48 h (100 = growth as untreated, 0 = no growth, -100 = all killed)
condition set: 10 µM unless noted
About 83,000 compounds went through this panel and 20% of them were active in at least one assay; those are over-represented in the sample as a whole.
Give measured growth for each item. Keep answers brief.
The answer is to be given in %; state only the numeric part.

Please give measured growth of the following entry: "COc1cc(-n2nc(C(=O)Nc3ccc(C(=O)O)cc3)nc2-c2ccccc2)cc(OC)c1OC"
92

Please give measured growth of the following entry: "O=C1Nc2ccc(Br)cc2C1=N/C=c1\[nH]c(=O)/c(=C/c2ccc(Cl)cc2)s1"
95.2

Please give measured growth of the following entry: CCCC(C(=O)OCC)C(C)OC(=O)OCC (stereo not given)
96.9

Please give measured growth of the following entry: "COc1ccc(/C=C/c2nc(N3CCOCC3)c3nc(Cl)c(Cl)cc3n2)cc1OC"
105

Please give measured growth of the following entry: "CNC(=O)c1cc(Oc2ccc3c(c2)sc2nc(-c4ccc(Cl)cc4)cn23)ccn1"
63.3

Please give measured growth of the following entry: "COc1cc(C(=O)OCCCCCCCCCCC[P+](c2ccccc2)(c2ccccc2)c2ccccc2)ccc1O"
-74.3

Please give measured growth of the following entry: "O=C(Nc1cccc(C(F)(F)F)c1)Nc1ccc(OCc2nnc(-c3ccccc3)o2)c(F)c1"
58.7

Please give measured growth of the following entry: CC1CCc2c(sc(NC(=O)CSc3nnc4ccccn34)c2C(N)=O)C1 (stereo not given)
109

Please give measured growth of the following entry: "Nc1ccc(S(=O)(=O)c2ccc(Cl)cc2)cc1"
96.8

Please give measured growth of the following entry: "CCN(Cc1ccc(CN(CC)C(=O)C(Br)Br)cc1)C(=O)C(Br)Br"
51.6
